These entries and their values trace back to ChEMBL document CHEMBL5126670.

Biological target: Ryanodine receptor 2 (Mus musculus) (UniProt E9Q401)
Sequence (E9Q401 whole entry): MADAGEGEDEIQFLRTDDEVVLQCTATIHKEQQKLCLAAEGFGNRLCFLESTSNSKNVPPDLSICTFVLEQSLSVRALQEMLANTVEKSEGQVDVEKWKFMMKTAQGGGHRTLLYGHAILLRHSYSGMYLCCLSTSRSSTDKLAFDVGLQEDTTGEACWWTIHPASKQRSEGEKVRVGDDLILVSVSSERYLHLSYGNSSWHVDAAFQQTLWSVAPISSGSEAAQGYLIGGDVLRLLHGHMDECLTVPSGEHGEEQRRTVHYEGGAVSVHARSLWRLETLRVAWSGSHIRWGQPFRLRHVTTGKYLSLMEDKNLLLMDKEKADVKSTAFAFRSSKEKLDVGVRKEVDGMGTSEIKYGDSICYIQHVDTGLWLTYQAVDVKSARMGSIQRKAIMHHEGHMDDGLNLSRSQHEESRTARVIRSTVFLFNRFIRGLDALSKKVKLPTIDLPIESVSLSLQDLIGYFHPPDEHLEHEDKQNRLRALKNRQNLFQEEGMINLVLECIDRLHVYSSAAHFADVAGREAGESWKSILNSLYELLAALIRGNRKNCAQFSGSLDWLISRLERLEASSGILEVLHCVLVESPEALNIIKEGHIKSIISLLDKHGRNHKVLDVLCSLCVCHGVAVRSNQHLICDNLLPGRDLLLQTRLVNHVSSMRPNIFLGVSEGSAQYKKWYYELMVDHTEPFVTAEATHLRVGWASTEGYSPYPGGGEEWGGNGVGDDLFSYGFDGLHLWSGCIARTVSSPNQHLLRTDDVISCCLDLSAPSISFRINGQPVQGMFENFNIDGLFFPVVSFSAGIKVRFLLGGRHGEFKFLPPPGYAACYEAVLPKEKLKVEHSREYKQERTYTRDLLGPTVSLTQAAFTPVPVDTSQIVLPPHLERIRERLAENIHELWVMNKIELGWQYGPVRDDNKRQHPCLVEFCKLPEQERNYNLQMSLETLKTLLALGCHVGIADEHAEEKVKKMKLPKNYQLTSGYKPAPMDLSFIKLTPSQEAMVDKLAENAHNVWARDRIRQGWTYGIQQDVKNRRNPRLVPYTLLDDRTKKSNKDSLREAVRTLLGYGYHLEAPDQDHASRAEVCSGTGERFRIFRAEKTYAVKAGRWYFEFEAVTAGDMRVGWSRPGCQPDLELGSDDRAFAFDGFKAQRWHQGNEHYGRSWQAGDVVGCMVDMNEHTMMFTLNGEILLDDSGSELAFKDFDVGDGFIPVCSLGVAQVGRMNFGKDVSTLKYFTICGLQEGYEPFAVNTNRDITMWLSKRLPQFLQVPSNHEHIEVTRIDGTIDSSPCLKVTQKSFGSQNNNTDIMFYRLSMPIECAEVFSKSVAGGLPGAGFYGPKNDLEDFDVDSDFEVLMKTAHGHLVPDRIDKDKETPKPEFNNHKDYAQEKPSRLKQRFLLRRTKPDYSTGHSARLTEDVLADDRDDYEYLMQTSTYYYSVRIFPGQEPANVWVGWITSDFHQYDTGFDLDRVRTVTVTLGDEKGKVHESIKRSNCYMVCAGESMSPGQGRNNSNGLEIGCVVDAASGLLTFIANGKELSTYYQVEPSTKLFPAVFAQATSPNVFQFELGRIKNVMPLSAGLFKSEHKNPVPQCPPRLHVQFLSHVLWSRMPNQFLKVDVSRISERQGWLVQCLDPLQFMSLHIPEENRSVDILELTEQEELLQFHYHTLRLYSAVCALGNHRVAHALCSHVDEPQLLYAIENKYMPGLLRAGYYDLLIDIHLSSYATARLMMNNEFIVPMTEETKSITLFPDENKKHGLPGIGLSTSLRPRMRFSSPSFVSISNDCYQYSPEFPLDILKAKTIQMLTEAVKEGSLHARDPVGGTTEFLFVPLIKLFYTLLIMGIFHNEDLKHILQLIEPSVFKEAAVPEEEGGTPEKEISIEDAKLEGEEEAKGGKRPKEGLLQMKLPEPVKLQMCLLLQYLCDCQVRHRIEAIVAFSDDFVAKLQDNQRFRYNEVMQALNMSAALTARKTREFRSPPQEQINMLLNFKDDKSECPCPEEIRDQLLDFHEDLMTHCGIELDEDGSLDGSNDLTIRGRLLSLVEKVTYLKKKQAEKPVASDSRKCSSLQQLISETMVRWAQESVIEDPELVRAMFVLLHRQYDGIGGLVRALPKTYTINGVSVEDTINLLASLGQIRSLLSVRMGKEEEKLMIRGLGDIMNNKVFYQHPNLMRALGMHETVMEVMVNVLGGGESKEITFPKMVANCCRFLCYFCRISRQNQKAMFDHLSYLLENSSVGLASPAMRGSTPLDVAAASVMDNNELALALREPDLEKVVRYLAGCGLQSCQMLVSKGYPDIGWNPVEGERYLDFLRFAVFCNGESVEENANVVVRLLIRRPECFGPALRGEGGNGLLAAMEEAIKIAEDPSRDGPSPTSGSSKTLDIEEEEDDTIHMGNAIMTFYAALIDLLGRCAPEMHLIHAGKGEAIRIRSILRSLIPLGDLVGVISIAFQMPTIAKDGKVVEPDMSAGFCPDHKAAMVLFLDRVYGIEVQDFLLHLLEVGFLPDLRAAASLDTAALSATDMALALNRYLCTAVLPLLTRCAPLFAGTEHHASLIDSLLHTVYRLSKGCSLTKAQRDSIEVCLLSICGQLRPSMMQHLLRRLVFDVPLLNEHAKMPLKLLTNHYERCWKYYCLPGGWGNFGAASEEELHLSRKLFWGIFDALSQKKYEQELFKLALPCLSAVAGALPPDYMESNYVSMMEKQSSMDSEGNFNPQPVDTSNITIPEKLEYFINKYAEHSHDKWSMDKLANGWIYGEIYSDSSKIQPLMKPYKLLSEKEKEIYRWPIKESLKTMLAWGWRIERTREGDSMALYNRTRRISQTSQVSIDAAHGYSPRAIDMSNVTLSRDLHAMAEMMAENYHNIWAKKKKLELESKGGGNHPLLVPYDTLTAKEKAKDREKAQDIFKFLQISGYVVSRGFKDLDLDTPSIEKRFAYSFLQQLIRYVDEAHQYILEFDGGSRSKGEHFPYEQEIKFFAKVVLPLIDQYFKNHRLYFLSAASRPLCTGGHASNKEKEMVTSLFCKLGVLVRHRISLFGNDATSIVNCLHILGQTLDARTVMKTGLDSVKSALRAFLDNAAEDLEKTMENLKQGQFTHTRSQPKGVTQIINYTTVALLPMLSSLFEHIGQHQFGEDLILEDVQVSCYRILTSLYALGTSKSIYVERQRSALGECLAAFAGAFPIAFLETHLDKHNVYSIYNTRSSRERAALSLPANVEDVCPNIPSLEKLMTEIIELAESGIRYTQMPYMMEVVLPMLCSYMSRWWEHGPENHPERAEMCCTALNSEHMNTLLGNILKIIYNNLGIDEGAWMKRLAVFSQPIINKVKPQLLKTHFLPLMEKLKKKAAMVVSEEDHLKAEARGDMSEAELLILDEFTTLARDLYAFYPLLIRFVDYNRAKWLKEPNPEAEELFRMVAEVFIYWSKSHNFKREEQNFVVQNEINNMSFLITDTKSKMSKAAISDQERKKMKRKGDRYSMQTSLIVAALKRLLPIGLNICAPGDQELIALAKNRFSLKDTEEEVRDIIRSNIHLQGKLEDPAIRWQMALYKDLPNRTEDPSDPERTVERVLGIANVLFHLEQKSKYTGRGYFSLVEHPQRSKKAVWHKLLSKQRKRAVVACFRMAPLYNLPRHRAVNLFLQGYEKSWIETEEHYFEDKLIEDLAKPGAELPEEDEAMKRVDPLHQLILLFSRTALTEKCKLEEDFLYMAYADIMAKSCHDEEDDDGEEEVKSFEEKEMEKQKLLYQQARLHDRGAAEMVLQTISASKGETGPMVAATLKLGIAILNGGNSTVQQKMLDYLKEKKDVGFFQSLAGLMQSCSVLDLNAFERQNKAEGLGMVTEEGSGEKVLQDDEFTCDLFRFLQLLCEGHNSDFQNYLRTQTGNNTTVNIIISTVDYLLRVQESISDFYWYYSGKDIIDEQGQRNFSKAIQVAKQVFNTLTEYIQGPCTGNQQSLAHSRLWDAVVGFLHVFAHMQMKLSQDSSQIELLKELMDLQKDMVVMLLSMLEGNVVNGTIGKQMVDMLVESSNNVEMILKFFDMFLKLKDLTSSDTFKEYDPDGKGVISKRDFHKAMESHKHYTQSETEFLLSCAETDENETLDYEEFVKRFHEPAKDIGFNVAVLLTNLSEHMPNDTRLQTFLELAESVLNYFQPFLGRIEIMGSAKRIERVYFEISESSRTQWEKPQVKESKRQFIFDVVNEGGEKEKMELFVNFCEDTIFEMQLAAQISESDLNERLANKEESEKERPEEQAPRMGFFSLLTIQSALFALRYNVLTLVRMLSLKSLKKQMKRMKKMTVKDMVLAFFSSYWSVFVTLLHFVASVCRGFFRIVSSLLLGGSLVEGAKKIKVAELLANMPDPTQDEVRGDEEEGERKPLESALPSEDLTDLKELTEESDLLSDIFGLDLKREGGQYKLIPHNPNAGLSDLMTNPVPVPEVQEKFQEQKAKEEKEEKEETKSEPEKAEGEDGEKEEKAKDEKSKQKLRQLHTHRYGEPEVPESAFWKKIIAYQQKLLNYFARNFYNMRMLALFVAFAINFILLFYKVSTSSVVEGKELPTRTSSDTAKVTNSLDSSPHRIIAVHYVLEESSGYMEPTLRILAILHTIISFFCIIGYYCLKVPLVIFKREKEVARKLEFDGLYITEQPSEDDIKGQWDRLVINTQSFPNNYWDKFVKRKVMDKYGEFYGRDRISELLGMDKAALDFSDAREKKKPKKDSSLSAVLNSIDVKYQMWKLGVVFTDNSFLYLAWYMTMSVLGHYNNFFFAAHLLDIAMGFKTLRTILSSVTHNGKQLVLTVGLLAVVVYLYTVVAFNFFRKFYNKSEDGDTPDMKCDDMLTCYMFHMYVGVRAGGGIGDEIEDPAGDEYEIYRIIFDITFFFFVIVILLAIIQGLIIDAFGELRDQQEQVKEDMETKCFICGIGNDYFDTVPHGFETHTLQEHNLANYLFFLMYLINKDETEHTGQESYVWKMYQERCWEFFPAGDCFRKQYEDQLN
Test: Inhibition of RyR2 in Casq2 gene knockout mouse cardiomyocytes assessed as reduction in calcium sparks frequency at 25 uM incubated for 15 mins by calcium sparks assay
Type: cell-based
Settings: Cardiomyocyte
Activity calls are given as the source filed them. The rule behind the calls is not given here.
result_type: inhibition

I'd like to know its inhibition. The compound in question is CCCCC[C@@H]1OC(=O)[C@@H](C)N(C)C(=O)[C@H](CCCCC)OC(=O)[C@@H](C)N(C)C(=O)[C@H](CCCCC)OC(=O)[C@@H](C)NC1=O
Active

Ok, now CCCCC[C@@H]1OC(=O)[C@@H](C)N(C)C(=O)[C@H](CCCCC)OC(=O)[C@@H](C)N(C)C(=O)[C@H](CCCCC)OC(=O)[C@@H](C)N(C)C1=O
Active

Ok, now CCCCC[C@@H]1OC(=O)[C@@H](C)NC(=O)[C@H](CCCCC)OC(=O)[C@@H](C)NC(=O)[C@H](CCCCC)OC(=O)[C@@H](C)NC1=O
Active

Ok, now CCCCC[C@@H]1OC(=O)[C@@H](C)N(C)C(=O)[C@H](CCCCC)OC(=O)[C@@H](C)NC(=O)[C@H](CCCCC)OC(=O)[C@@H](C)NC1=O
Active
